molecular target: rat synaptosomal NE Reuptake (Rattus norvegicus); construct: rat synaptosomal 5-HT and NE Reuptake; assay: Norepinephrine reuptake assay (rat synaptosomal NE uptake); conditions: rat synaptosomal; read-out: NE uptake inhibition IC50
Sequence (Q63380 1-617): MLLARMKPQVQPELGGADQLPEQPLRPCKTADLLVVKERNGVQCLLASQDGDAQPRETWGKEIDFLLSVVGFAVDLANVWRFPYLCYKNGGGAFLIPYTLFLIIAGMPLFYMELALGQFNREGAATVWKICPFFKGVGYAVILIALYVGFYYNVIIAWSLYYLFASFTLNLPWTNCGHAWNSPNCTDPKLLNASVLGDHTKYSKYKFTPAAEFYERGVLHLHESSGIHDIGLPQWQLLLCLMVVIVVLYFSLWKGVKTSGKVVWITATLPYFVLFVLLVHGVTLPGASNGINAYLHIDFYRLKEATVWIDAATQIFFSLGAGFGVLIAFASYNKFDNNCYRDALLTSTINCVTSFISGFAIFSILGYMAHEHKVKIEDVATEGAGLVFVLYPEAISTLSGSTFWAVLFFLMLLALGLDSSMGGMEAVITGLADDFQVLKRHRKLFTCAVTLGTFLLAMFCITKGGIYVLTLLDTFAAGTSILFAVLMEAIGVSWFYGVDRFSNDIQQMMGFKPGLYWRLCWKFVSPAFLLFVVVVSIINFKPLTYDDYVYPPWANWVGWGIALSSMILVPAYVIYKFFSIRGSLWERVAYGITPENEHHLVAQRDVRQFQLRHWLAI

STRUCTURE_AS_SMILES: CN1CCC(c2ccsc2)(C(C)(C)O)CC1
IC50, nM: 223

====

target: rat synaptosomal 5-HT Reuptake (Rattus norvegicus, UniProt P31652); construct: rat synaptosomal 5-HT and NE Reuptake; test: Serotonin reuptake assay (rat synaptosomal 5-HT uptake)
Sequence (P31652 whole entry): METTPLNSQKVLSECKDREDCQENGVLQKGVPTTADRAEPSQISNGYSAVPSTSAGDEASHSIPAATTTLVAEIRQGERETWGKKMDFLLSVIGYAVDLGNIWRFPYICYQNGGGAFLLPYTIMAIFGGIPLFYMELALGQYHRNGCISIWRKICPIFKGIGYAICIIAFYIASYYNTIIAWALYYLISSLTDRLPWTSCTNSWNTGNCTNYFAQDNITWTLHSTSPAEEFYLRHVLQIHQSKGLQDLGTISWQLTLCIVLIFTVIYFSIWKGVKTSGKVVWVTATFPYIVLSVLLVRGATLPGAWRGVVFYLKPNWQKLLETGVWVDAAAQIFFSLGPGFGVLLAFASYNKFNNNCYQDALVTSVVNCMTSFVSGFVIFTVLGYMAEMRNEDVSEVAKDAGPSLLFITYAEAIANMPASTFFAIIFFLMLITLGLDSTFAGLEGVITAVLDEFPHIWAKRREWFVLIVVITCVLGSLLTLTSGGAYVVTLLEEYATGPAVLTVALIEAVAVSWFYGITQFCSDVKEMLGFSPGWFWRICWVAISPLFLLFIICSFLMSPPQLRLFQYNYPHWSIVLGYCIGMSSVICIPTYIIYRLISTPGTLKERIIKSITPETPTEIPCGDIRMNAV

STRUCTURE_AS_SMILES: CN1CCC(c2ccsc2)(C(C)(C)O)CC1
IC50 / nM: 120
